Hello, the source for this data is patent US20130089544A1, in case you need it.

Biological target: T1, human ErbB2 ECD-myc/His fusion protein (human, UniProt P04626 23-652)
T1 construct: Made in-house in 293T cells; also called hErbB2(ECD)/cMyc-His; huErbB2 (ECD)/c-myc-His; not shown: c-myc/His tag of the pSecTag2Hygro vector
Experiment: SPR, Biacore 2000 medium resolution; mAb captured on goat anti-human IgG, ErbB2(ECD)-cMyc/His injected; 1:1 fit
MEASUREMENT_TYPE: koff (s⁻¹)
Value expressed in s⁻¹; do not type the unit.

Solved entries:
{"columns": ["BINDER", "ENDPOINT_VALUE"],
 "data": [
  ["monoclonal antibody 1.20 (antibody, V domains shown, Fully human IgG (gamma/kappa) from a XenoMouse XM3B-3 hybridoma; constant regions not tied to it; also called 1.20.1; 1.19) VH: EVQLVESGGGLVKPGGSLRLSCAASGFTFSSYTMNWVRQAPGKGLEWVSSISSSSSYIYYADSVKGRFTISRDNAKNSLYLQMNSLSAEDTAVYSCARGGDGYNYYYFDYWGQGTLVTVSS VL: DIVMTQSPGSLVVSLGERATITCKSSQSVFFRSNNKNCLAWYQQRPGQSPNLLIYWASTRESGVPDRFSGSGSGTDFTLTISSLQAEDVAVYYCQQYFGSPFTFGPGTKVDIK", 0.000344],
  ["monoclonal antibody 1.100.1 (antibody, V domains shown, Fully human IgG (gamma/kappa) from a XenoMouse XM3B-3 hybridoma; constant regions not tied to it; also called 1.100.2; 1.100.3) VH: EVQLVESGGGLVKPGGSLRLSCAASGFTFSSYSMNWVRQAPGKGLEWVSSISSSSSYIYYADSVKGRFTISRDNAKNSLYLQMNSLRAEDTAVYYCARGGDGYNYYYFDYWGQGTLVTVSS VL: DIVMTQSPDSLAVSLGERATITCKSSQSVFFRSNNKNCLAWYQQRPGQPPNLLIYWASTRESGVPDRFSGSGCGTDFTLTISSLQAEDVAVYYCQQYFGSPFTFGPGTKVDIK", 0.000301],
  ["monoclonal antibody 1.39 (antibody, V domains shown, Fully human IgG (gamma/kappa) from a XenoMouse XM3B-3 hybridoma; constant regions not tied to it; also called 1.39.1; 1.39.2) VH: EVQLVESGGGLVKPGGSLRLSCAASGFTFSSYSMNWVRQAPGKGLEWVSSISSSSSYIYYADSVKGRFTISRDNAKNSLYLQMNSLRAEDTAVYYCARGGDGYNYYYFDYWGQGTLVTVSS VL: DIVMTQSPDSLAVSLGERATITCKSSQSVFFRSNNKNCLAWYQQRPGQPPNLLIYWASSRESGVPDRFSGSGSGTDFALTISSLQTEDVAVYYCQQYFGSPFTFGPGTKVDIK", 0.000236]
]}

// query Consider the binder monoclonal antibody 1.96 (antibody, V domains shown, Fully human IgG (gamma/kappa) from a XenoMouse XM3B-3 hybridoma; constant regions not tied to it) VH: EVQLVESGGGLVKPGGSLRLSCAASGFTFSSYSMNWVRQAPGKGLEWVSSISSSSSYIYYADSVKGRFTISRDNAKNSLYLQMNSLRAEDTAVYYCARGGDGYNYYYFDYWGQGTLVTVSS VL: DIVMTQSPDSLAVSLGERATITCKSSQSVFFRSNNKNCLAWYQQRPGQPPNLLFYWASTRESGVPDRFSGSGSGTDFTLTISSLQAEDVAVYYCQQYFGSPFTLGPGTKVDIK and give its measured koff.
// result 0.000273

// query Check monoclonal antibody 1.18.1 (antibody, V domains shown, Fully human IgG (gamma/kappa) from a XenoMouse XM3B-3 hybridoma; constant regions not tied to it) VH: EVQLVESGGGLVKPGGSLRLSCAASGFTFSSYSMNWVRQAPGKGLEWVSSISSSSSYIYYADSVKGRFTISRDNAKNSLYLQMNSLSAEDTAVYSCARGGDGYNYYYFDYWGQGTLVTVSS VL: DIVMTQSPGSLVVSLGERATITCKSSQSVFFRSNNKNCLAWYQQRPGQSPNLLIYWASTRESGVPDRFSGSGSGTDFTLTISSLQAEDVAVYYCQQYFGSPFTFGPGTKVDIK too.
// result 0.000302

// query Check monoclonal antibody 1.14.1 (antibody, V domains shown, Fully human IgG (gamma/kappa) from a XenoMouse XM3B-3 hybridoma; constant regions not tied to it) VH: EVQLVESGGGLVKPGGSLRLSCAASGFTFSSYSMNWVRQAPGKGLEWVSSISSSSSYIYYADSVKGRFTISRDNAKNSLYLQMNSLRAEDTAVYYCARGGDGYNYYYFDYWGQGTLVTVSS VL: DIVMTQSPDSLAVSLGERATITCKSSQSVFFRSNNKNCLTWYQQRPGQPPNLLIYWASTRESGVPDRFSGSGSGTDFTLTINNLQAEDVAVYYCQQYFGSPFTFGPGTKVDIK too.
// result 0.000256
